Target: HLA-A*02:01
Test: IEDB peptide-MHC binding, purified MHC/competitive/radioactivity; bounds were set here for any values at or beyond the usual limits of such assays
Settings: source organism: Vaccinia virus WR
pIC50: −log10 of the molar value.
Category scheme (pIC50): bucket 1 (below 6), bucket 2 (6 to below 8), bucket 3 (8 or more)

Field: example entries. Status: answers known.
Task: Entry "TIAVSVYGAI" belongs to which category?
Result: bucket 1

Task: Which band does "CTMERTNDL" fall in?
Result: bucket 2

Task: Hi, small favor: classify "FLIDLAFLI" by its pIC50 when you get a moment.
Result: bucket 3

New cases:
Task: Just checking, what class would you give "HLMSDNPKA" here?
Result: bucket 2

Task: For "KTITTCYLM" , which pIC50 bin applies?
Result: bucket 2

Task: Quick check: band for "KLFYVYYNL"
Result: bucket 3

Task: Sort into band: "HIIIVALTIM"
Result: bucket 1

Task: Textbook exercise: identify the category of the sequence given here, "KILSDENYL" , according to its measured value.
Result: bucket 2

----------
Target: HLA-A*68:02
Assay: IEDB peptide-MHC binding, cellular MHC/competitive/fluorescence; bounds were set here for any values at or beyond the usual limits of such assays
Conditions: source organism: Vaccinia virus WR
Mark y for IC50 under 20 µM, n if at or over.

Task: Item "LLPLTSLVI" : IC50 beneath 20 µM, strictly?
Result: n

Task: State whether 20 µM exceeds IC50 recorded for "TQLFKYVPSA" .
Result: n

Task: Lab log: compare recorded IC50 with 20 µM; is it strictly lower for "YLPEVISTIA" ?
Result: y

Task: Is IC50 of "VQYRILPMII" strictly below 20 µM?
Result: n

Task: For "VAVNKSNKPL" , is the recorded IC50 below the cut-off of 20 µM?
Result: y

Task: Consider "VIDRLPSET" . Does its IC50 lie strictly below 20 µM?
Result: y

Task: For this sequence, is IC50 lower than 20 µM? "TQFNFNGHT"
Result: n

Task: # check: IC50 < 20 µM for "RTRLYDYFT"
Result: n

Task: A record lists "ILDNAAKYV" . Is its IC50 below 20 µM?
Result: n

Task: Just wondering, is IC50 of "EAKTHFSTT" below 20 µM?
Result: y

Further cases:
Task: Take the sequence "AVTLNRIKIA" and say whether its IC50 is less than 20 µM.
Result: y

Task: Given the entry "SVDEEGCGPL" , would its reported IC50 be below 20 µM?
Result: n

Task: IC50 strictly < 20 µM for this sequence? "ILHNIYRLFT"
Result: n

Task: Please check: IC50 for "LANERYRSA" , strictly under 20 µM or not?
Result: n

Task: Dear colleague, could you confirm whether IC50 of "VADLSARNKL" falls below 20 µM? Thanks.
Result: y

Task: Just wondering, is IC50 of "YVPSAEDNYL" below 20 µM?
Result: n

Task: Strictly below 20 µM in IC50? "KIVQLPKRGV"
Result: n

Task: Would you kindly verify if IC50 of "AATKRYPGVM" is strictly less than 20 µM?
Result: n

Task: Quick check: IC50 of "VLTILYYGA" under 20 µM?
Result: y

Task: For this sequence, is IC50 lower than 20 µM? "MAFILGIIIT"
Result: y

Task: Determine whether this sequence shows IC50 lower than 20 µM (ties excluded): "DVKVLAARL"
Result: y

Task: IC50 under 20 µM? Item: "DVGCLLTDT"
Result: n

Task: Check if IC50 falls below 20 µM for "DMDFDLNIFM" .
Result: y

Task: Does this sequence meet the criterion IC50 < 20 µM? "KLYIALCKVT"
Result: y

Task: Does the reported IC50 of the following sequence sit strictly below 20 µM? "SALMTLDDLA"
Result: y

Task: Lab note: confirm whether the reported IC50 for this sequence is below 20 µM, equality not counting. sequence: "GAFMYTKHSM"
Result: y

Task: # strict comparison: is reported IC50 < 20 µM? input = "DLKHATDYIA"
Result: y

Task: Threshold test, IC50 < 20 µM: "NITPDDGLGL"
Result: y

----------
Quick reference: IC50 of the listed items.
Molecular target: HLA-A*02:06
Test: IEDB peptide-MHC binding, cellular MHC/competitive/fluorescence; bounds were set here for any values at or beyond the usual limits of such assays
Details: source organism: Influenza A virus
Respond with the bare value in µM.

Some sequences with recorded IC50:
Task: Give the measured IC50 of "SMGVYQILA" .
Result: 10.4

Task: Return reported IC50; argument: "CLINDPWVL"
Result: 6.16

Task: Reported IC50, sequence "TVLGVSIL" : ____
Result: 5.69

Task: Can you look up the measured IC50 of "NLYNIRNL" for me?
Result: 50.8

Task: Consider the sequence shown here: "VNPTLLFLKV" What is its recorded IC50?
Result: 16.4

Others:
Task: May I ask what IC50 has been recorded for "SAAFEDLRLL" ?
Result: 23.5

Task: Suppose we examine the sequence "AVATTHSWI" ; what IC50 value has been reported?
Result: 28

Task: Which IC50 is listed for "NVTVTHSV" ?
Result: 18.6

Task: For the sequence shown here, "RAMAWTVV" , give the reported IC50.
Result: 7.78

Task: Reported IC50 for "ILLRAFTEEGA" : what is it?
Result: 26.3

Task: Record request: IC50 value, item "AIRGQYSGFV"
Result: 42.8

Task: What value of IC50 has been recorded for this entry: "TVIKNNMI"
Result: 67

Task: Find the recorded IC50 belonging to "GADINLMPI" and report it.
Result: 5.77

Task: Request the reported IC50 associated with "TTQIIKLLPFA"
Result: 11.6

----------
Molecular target: HLA-A*02:03
Assay: IEDB peptide-MHC binding, cellular MHC/competitive/fluorescence; bounds were set here for any values at or beyond the usual limits of such assays
Details: source organism: Vaccinia virus WR
OUTCOME_MEASURE: log10 of IC50 (log10 of the value in µM)
Log scale reminder: IC50 in µM, then log10 taken.

Task: Reported log10 of IC50 for "TTNNLLEQLI" : what is it?
Result: 1.32

Task: Which log10 of IC50 value is on record for "GLESIEQNLT" ?
Result: 1.79

Task: For the sequence "DMLLNVQTL" , what log10 of IC50 is on record?
Result: 0.71

Task: Endpoint output: log10 of IC50 of "VILPDKIDGL" . Value?
Result: 1.03

Task: What value of measured log10 of IC50 is listed for "EAKTHFSTT" ?
Result: 1.40

Task: Return reported log10 of IC50; argument: "PIPMSRLFM"
Result: 0.96

Task: Could you share which log10 of IC50 value was measured for "HTKFWISDNT" ?
Result: 1.78

Task: Which log10 of IC50 is listed for "HLTENNLYI" ?
Result: 1.16

Task: Quick one: log10 of IC50 for "AVSVYGAIT" ?
Result: 0.98

Task: # query: log10 of IC50 of entry "TAFFNTCKPT"
Result: 1.35

Further cases:
Task: Reported log10 of IC50 for "YTGGYDVSL" : what is it?
Result: 0.78

Task: Find the recorded log10 of IC50 belonging to "SVDEEGCGPL" and report it.
Result: 1.59

Task: Look up log10 of IC50 for this sequence: "KTPVIVVPVI"
Result: 0.79

Task: Which log10 of IC50 value belongs to "DAIKSNNHLT" ?
Result: 1.25

Task: Recorded log10 of IC50 of "GTGILFMEM" , please.
Result: 0.89

Task: For the sequence shown here, "MVEYLENQL" , give the reported log10 of IC50.
Result: 0.81

Task: Which log10 of IC50 reading was recorded for the sequence "FTDCRTIDAI" ?
Result: 1.11

Task: Sample "TVGMLIYSM" — what was its log10 of IC50?
Result: 0.78

Task: What value of log10 of IC50 has been recorded for this entry: "STQQNKLVI"
Result: 1.16

Task: Which log10 of IC50 is reported for this sequence? "LTSVDIETA"
Result: 1.06

Task: Item "QIYLSDSDNI" has what recorded log10 of IC50?
Result: 1.29

Task: Request the reported log10 of IC50 associated with "TAATKRYPGV"
Result: 1.02

Task: GET /values?readout=log10 of IC50&item= "ELEKCTSEI"
Result: 1.75

Task: Could you tell me which log10 of IC50 is on file for "DIDLLFNEKL" ?
Result: 1.43

Task: // query log10 of IC50 value for entry "DIMLPESDL"
Result: 1.55

Task: // returns reported log10 of IC50 for input "KVIKLVKSLV"
Result: 1.13

Task: Consider the sequence "IVNTTYDFLA" and give its measured log10 of IC50.
Result: 0.92

Task: Dear colleague, I am looking for the recorded log10 of IC50 of the following sequence: "CTMERTNDLT"
Result: 1.21

These entries and their values trace back to the Immune Epitope Database (IEDB).
